Origin of the recorded values: the supplement of paper PMC10567573

B1: INTS3 (parent)
chain: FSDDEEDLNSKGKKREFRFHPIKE

Variants of: B1
Test: protein stability index of a GFP-peptide fusion (GPS, HEK-293T) (PSI 1-6); higher = more stable;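 also: lentivirally expressed fusions sorted by FACS into six bins by GFP to DsRed ratio, PSI derived from sequencing read proportions per bin multiplied by bin number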
Details: c terminus: a fixed tail appended
Value Type: protein stability index
Reply with just the number.

{"Biopolymer Sequence": "FSDLEEDLNSKGKKREFRFHPIKE [D4L]", "protein stability index": 2.43}

So what's the measured protein stability index for this one? FNDDEEDLNSKGKKREFRFHPIKE [S2N]
2.92

So what's the measured protein stability index for this one? FSDDEEDLNSTGKKREFRFHPIKE [K11T]
3.35

So what's the measured protein stability index for this one? FSDDEEDLNSKGEKREFRFHPIKE [K13E]
3.6

So what's the measured protein stability index for this one? FSDDEEDLNSKGKKREFRHHPIKE [F19H]
5.29

So what's the measured protein stability index for this one? FSDDEEDLNSKGKKRSFRFHPIKE [E16S]
2.93

So what's the measured protein stability index for this one? FSDDEEDLNSKGKKREFRFHPIDE [K23D]
4.1
